- Test system: HS 578T breast
- assay_method_text: NCI tumour cell line growth inhibition, 48 h
In this section, each of the molecules is paired with its reported TGI.
measured_endpoint: TGI

smiles_structure: Cc1ccc(/C(=N/NS(=O)(=O)c2ccc([N+](=O)[O-])cc2)Sc2cc(Cl)c(C)cc2S(N)(=O)=O)cc1
result: > 100 µM
--
smiles_structure: COc1ccc(/C=C/c2nsc(/C=C/c3ccc(OC)cc3)n2)cc1
result: > 100 µM
--
smiles_structure: CC(C)/C(Cl)=N\OC(=O)Nc1ccc(F)cc1
result: 71.9 µM

###

- Test system: LOX IMVI melanoma
- assay_method_text: NCI tumour cell line growth inhibition, 48 h
In this section, each of the molecules is paired with its reported TGI.
measured_endpoint: TGI

molecule: CCOC(=O)c1ccc2c(c1)[n+](=O)c(C(=O)C1CCCS1)c(C(F)(F)F)n2[O-] (stereo not drawn)
result: 0.308 µM

molecule: CC1=C(C(=O)Nc2ccc([N+](=O)[O-])cc2)C(c2cccc([N+](=O)[O-])c2)C(C(=O)Nc2ccc([N+](=O)[O-])cc2)=C(C)N1
result: > 100 µM

molecule: COc1cc(Nc2nc3ccccc3n3cccc23)cc(OC)c1OC
result: > 100 µM

molecule: CCNCCCCNCCCCNCCCCNCCCCNCC
result: > 100 µM

molecule: CCn1c2ccccc2c2cc(/C=C(/C#N)C(N)=S)ccc21
result: 26.1 µM

molecule: COC(=O)C1(NC(=O)C(CC(=O)OCc2ccccc2)NC(=O)OCc2ccccc2)CCCCCCC1 (stereo not drawn)
result: > 100 µM

molecule: COc1ccc2c(c1)[C@@H]1c3cc(OC)c(OC)cc3CCN1CCC2
result: > 100 µM

molecule: COc1cc(/C=C/C(=O)Oc2ccc(NC(C)=O)cc2)ccc1C(=O)OCc1ccccc1
result: > 100 µM

molecule: CC(=O)[CH-]C(=O)c1ccccc1.CC(=O)[CH-]C(=O)c1ccccc1.CCN(CC)CC[O-].CCN(CC)CC[O-].Cl.[Hf+4]
result: > 100 µM

molecule: CC1OC(OC2C(O)C(OCCc3ccc(O)c(O)c3)OC(CO)C2OC(=O)/C=C/c2ccc(O)c(O)c2)C(O)C(O)C1OC1OCC(O)(CO)C1O (stereo not drawn)
result: 35.3 µM

molecule: COc1cc(C)c2c(c1C=O)Oc1c(c(C)c(O)c3c1C(O)OC3=O)OC2=O (stereo not drawn)
result: > 100 µM

molecule: Nc1ccccc1C#C/C=C\C#Cc1cnccn1
result: 17.5 µM

molecule: CCOC(=O)NC(=O)c1cn(CCCOC(=O)CCCCCCCCC(=O)OCCCn2cc(C(=O)NC(=O)OCC)c(=O)n(C)c2=O)c(=O)n(C)c1=O
result: > 100 µM

molecule: c1cc(-c2ccc(-c3ccc(C4=NCCCN4)cc3)o2)ccc1C1=NCCCN1
result: > 100 µM

molecule: N#Cc1c(-c2ccc(Cl)cc2)csc1NC(=O)Nc1ccc(Cl)c(C(F)(F)F)c1
result: 7.38 µM

molecule: Cc1c([C@H](C(Cl)Cl)[C@H](O)[C@H]2C[C@H](C)C(=O)O2)ccc2c1C(=O)[C@H]1[C@H]2C[C@@H](Br)[C@@]23O[C@@H](CO[C@H]2O)CC13C (stereo partly drawn)
result: > 50 µM

molecule: COc1cccc(/C=C/c2ccc(S(N)(=O)=O)cc2)c1
result: > 100 µM

molecule: O=[N+]([O-])c1ccc(C2N3CCCCC3[C@H]3CCCCN23)cc1 (stereo partly drawn)
result: > 100 µM
